- TEST TARGET: VAV1 (Homo sapiens, UniProt P15498+Q96SW2)
- Construct: A heterozygous VAV1 C-terminal HiBiT knock-in pool was generated at Monte Rosa Therapeutics from a clonal Jurkat cell; endogenous in cells; host or cells: Jurkat clone stably expressing LgBiT, homozygous GSPT1-G575N; heterozygous VAV1-HiBiT knock-in pool
- ASSAY METHOD TEXT: VAV1 degradation activity, VAV1-HiBiT knock-in Jurkat luminescence assay (Example A, Table 1)
- Format: cell-based
- EXPERIMENTAL PARAMETERS: VAV1-HiBiT knock-in Jurkat cells, luminescence read at 6 and 24 hours; read-out: VAV1 DC50
MEASUREMENT TYPE: DC50

Look over these answered cases.
O=C1CCC(c2cccc(-c3ccc(CN4CCCCC4=O)nc3)c2Cl)C(=O)N1 (stereo not drawn) [Compound 433] | ≥ 10 µM
Cn1cccc(-c2ccc(-c3cccc(C4CCC(=O)NC4=O)c3Cl)cc2)c1=O (stereo not drawn) [Compound 225] | 0.0144 µM

Here's the next entry for you.
query: DC50 for Cn1ccc(COc2ccc(-c3ccc(Cl)c(C4CCC(=O)NC4=O)c3)c(Cl)c2)n1 (stereo not drawn) [Compound 153] ?
result: ≥ 10 µM

* * *

- TEST TARGET: VAV1 (Homo sapiens, UniProt P15498+Q96SW2)
- Construct: A heterozygous VAV1 C-terminal HiBiT knock-in pool was generated at Monte Rosa Therapeutics from a clonal Jurkat cell; endogenous in cells; host or cells: Jurkat clone stably expressing LgBiT, homozygous GSPT1-G575N; heterozygous VAV1-HiBiT knock-in pool
- ASSAY METHOD TEXT: VAV1 degradation activity, VAV1-HiBiT knock-in Jurkat luminescence assay (Example A, Table 1)
- Format: cell-based
- EXPERIMENTAL PARAMETERS: VAV1-HiBiT knock-in Jurkat cells, luminescence read at 6 and 24 hours; read-out: VAV1 DC50 (nM), class
Reported DC50 by item:

O=C1CCC(c2cccc(-c3ccc(N4CC(C(F)(F)F)OCC4=O)cc3)c2Cl)C(=O)N1 (stereo not drawn) | ≤ 100 nM
COC(=O)c1ccc(Cc2ccc(-c3cccc(C4CCC(=O)NC4=O)c3Cl)cc2)n1C (stereo not drawn) | ≤ 100 nM
O=C1CCC(c2cccc(-c3ccc(N4CCCOC4=O)c(F)c3)c2Cl)C(=O)N1 (stereo not drawn) | ≤ 100 nM
O=C1CCC(c2cccc(-c3ccc(N4Cc5ncccc5C4=O)cc3)c2Cl)C(=O)N1 (stereo not drawn) | > 1000 nM
CC(c1ccc(-c2cccc(C3CCC(=O)NC3=O)c2Cl)cc1)n1ccccc1=O (stereo not drawn) | ≤ 100 nM

query: What does the record list as DC50 for O=C1CCC(c2cccc(-c3ccc(N4CCOC4=O)cc3)c2Cl)C(=O)N1 (stereo not drawn) ?
result: > 1000 nM

query: Given the entry O=C1CCC(c2cccc(-c3ccc(C4COC(=O)N4)cc3)c2Cl)C(=O)N1 (stereo not drawn) , report its measured DC50.
result: > 1000 nM

query: For the compound Cn1ccc(C(F)(F)F)c(-c2ccc(-c3cccc(C4CCC(=O)NC4=O)c3Cl)cc2)c1=O (stereo not drawn) , what DC50 is on record?
result: ≤ 100 nM

query: Entry under review: COc1cc(OC(F)F)ccc1-c1cccc(C2CCC(=O)NC2=O)c1Cl (stereo not drawn) . Reported DC50?
result: > 1000 nM

query: Requested read-out: DC50. Entry: CC1CCN(c2ccc(-c3cccc(C4CCC(=O)NC4=O)c3Cl)cc2)C1=O (stereo not drawn)
result: 100 to 1000 nM

query: Give the measured DC50 of CC1(Cc2ccc(-c3cccc(C4CCC(=O)NC4=O)c3Cl)cc2)COC1 (stereo not drawn) .
result: ≤ 100 nM

query: Name the reported DC50 value associated with the compound O=C1CCC(c2cccc(-c3ccc(N4CCCCC4C(F)(F)F)cc3)c2Cl)C(=O)N1 (stereo not drawn)
result: 100 to 1000 nM
